tested on: NOMO1; experiment: cell viability relative to DMSO control; higher = less cytotoxic; details: HPLM + 10% dialyzed FBS; 48 h; 0.0211 µM
experimental endpoint: cell viability (%)

smiles_notation=OC(=O)\C1=C\N(C2CC2)C3=CC(=C(F)C=C3C1=O)N4CCNCC4 measured_on=NOMO1 reported_result=129
smiles_notation=CN1C(=O)/C(=C(NC2=CC=C(I)C=C2F)\C3=C1\N=C/N(C[C@@H](O)CO)C3=O)F measured_on=NOMO1 reported_result=58.8
smiles_notation=C[S+](=O)([O-])Oc1ccc2c(NC(N)=O)c(C(=O)c3ccc(Cl)cc3Cl)oc2c1 measured_on=NOMO1 reported_result=113
smiles_notation=COc1ccccc1[C@H](c1cccc2ccccc12)[C@@](C)(C#N)C(=O)N1CCC(c2cccc(C(F)(F)F)c2)CC1 measured_on=NOMO1 reported_result=104
smiles_notation=O=C(c1cncc(Br)c1)N1CCC(N2CCCC2)CC1 measured_on=NOMO1 reported_result=110

Recorded values, source the supplement of paper PMC11451515.
